These measurements were taken from patent US10517889B2.

- Tested on: human SMAD7 mRNA
- procedure-text: Antisense inhibition of human SMAD7 mRNA expression in Hep3B cells by 3-10-3 cEt gapmers, 10,000 nM, electroporation (Example 2)
- Type: cell-based
- assay-setup: SMAD7 mRNA, Hep3B cells, 10,000 nM antisense oligonucleotide, electroporation, approximately 24 hours, primer probe set RTS5062, relative to untreated control cells
Strand notation (5' to 3'): a small letter for the sugar, then the base; units joined by * are phosphorothioate-linked, units joined directly phosphodiester-linked; [ ] holds rarer units or linkages, { } end groups; capitals alone tell only the bases. k = constrained ethyl (cEt); [5mC] = 5-methylcytosine; d = 2'-deoxy (DNA)
measurement-name: % Inhibition
Report as: number unit

Take a look at these entries with their results.
{"substance": "772589 (kA*k[5mC]*k[5mC]*dG*dA*dT*d[5mC]*d[5mC]*d[5mC]*d[5mC]*dA*dG*dG*k[5mC]*kT*k[5mC]; antisense) [compound 772589]", "reading": "9%"}
{"substance": "829724 (antisense kG*kG*k[5mC]*dA*dT*dG*d[5mC]*dG*d[5mC]*d[5mC]*dA*dG*dT*k[5mC]*kT*k[5mC]) [compound 829724]", "reading": "54%"}
{"substance": "829744 (antisense kA*k[5mC]*kG*dG*d[5mC]*dT*d[5mC]*d[5mC]*dT*d[5mC]*d[5mC]*dA*dG*kA*kG*kA) [compound 829744]", "reading": "39%"}
{"substance": "829755 (antisense kT*kT*k[5mC]*dT*d[5mC]*d[5mC]*d[5mC]*d[5mC]*dG*d[5mC]*dA*dG*d[5mC]*kT*k[5mC]*kG) [compound 829755]", "reading": "52%"}
{"substance": "800998 (antisense k[5mC]*k[5mC]*k[5mC]*dG*d[5mC]*dT*d[5mC]*dT*d[5mC]*dA*dG*d[5mC]*d[5mC]*kA*kG*kG) [compound 800998]", "reading": "39%"}

IN: Report % Inhibition for 829725 (antisense k[5mC]*k[5mC]*kG*dT*dG*dG*d[5mC]*dA*dT*dG*d[5mC]*dG*d[5mC]*k[5mC]*kA*kG) [compound 829725] please.
OUT: 41%

====

- Test system: human SMAD7 mRNA
- procedure-text: Dose-dependent inhibition of human SMAD7 mRNA expression in Hep3B cells (Example 3, Study 1 and 2)
- Format: cell-based
- assay-setup: 2220 nM, electroporation, approximately 16 hours, Study 2
- Experimental: The antisense oligonucleotides were tested in a series of experiments that had similar culture conditions as described below. Cells were plated at a density of 20,000 cells per well and transfected using electroporation with 0.31 μM, 1.25 μM, 5.00 μM, or 20.00 μM concentrations of antisense oligonucleotide, as specified in the Tables below. […] After a treatment period of approximately 16 hours, RNA was isolated from the cells and SMAD7 mRNA levels were measured by quantitative real-time PCR. […]
Strand notation (5' to 3'): a small letter for the sugar, then the base; units joined by * are phosphorothioate-linked, units joined directly phosphodiester-linked; [ ] holds rarer units or linkages, { } end groups; capitals alone tell only the bases. k = constrained ethyl (cEt); [5mC] = 5-methylcytosine; d = 2'-deoxy (DNA)
Recorded % inhibition of SMAD7 mRNA expression by entry
// units = %; emit number, no label

Take a look at these entries with their results.
{"substance": "790732 (kG*k[5mC]*kT*dT*dA*dT*dT*dT*d[5mC]*dA*dT*dG*dT*kG*kG*kT; antisense) [compound 790732]", "measurement-name": "% inhibition of SMAD7 mRNA expression", "reading": 78}
{"substance": "830163 (antisense k[5mC]*kA*kA*d[5mC]*dT*dG*dA*dA*dG*dG*dT*dG*dA*k[5mC]*k[5mC]*k[5mC]) [compound 830163]", "measurement-name": "% inhibition of SMAD7 mRNA expression", "reading": 49}

Field: next substance
IN: Report % inhibition of SMAD7 mRNA expression for 799904 (antisense kA*k[5mC]*kT*d[5mC]*dA*dG*dA*dG*d[5mC]*dA*dG*d[5mC]*dT*k[5mC]*kT*k[5mC]) [compound 799904] please.
OUT: 9
